biological target: T1, Histidine-tagged human CD3e protein (human, UniProt P07766 23-126); test: SPR (Biacore), human CD3e
T1 construct: also called hCD3e-His; not shown: His tag
T1 sequence (P07766 23-126 limits assumed): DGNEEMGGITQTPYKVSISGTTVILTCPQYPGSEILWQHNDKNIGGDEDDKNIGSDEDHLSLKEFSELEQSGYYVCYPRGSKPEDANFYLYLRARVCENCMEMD
Measured kon of individual entries
# value in M⁻¹ s⁻¹; strip the unit string

{"Binder": "1B1-H4K3-IgG1-LALA (antibody, V domains shown, Humanized; human IgG1 with LALA mutations; also called H4K3 (humanized 1B1)) VH: QVQLVQSGAEVVKPGASVKLSCKASGYTFTSYWMHWVRQRHGQGLEWIGNIYPDSGTTNYGEKFKTRGTLTVDTSTSTAYMELSSLRSEDTAVYYCTRDTSGQYYFDYWGQGTLVTVSS VL: DIVMTQSPDSLAVSAGERVTMNCKSSQSLLNSRTRKNYLAWYQHKPGQSPKLLIYWASTRESGVPDRFSGSGSGTDFTLTISSVQAEDVAVYYCVQSFSLRAFGGGTKLEIK", "kon (M⁻¹ s⁻¹)": 502000}

Sample 1B1-H3K3-IgG1-LALA (antibody, V domains shown, Humanized; human IgG1 with LALA mutations; also called H3K3 (humanized 1B1)) VH: QVQLVQSGAEVKKPGASVKLSCKASGYTFTSYWMHWVRQRHGQGLEWIGNIYPDSGTTNYGEKFKTRVTLTVDTSTSTAYMELSSLRSEDTAVYYCTRDTSGQYYFDYWGQGTLVTVSS VL: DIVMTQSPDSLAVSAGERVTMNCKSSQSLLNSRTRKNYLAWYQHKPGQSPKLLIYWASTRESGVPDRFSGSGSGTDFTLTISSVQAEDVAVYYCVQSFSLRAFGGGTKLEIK — what was its kon?
698000
